The entries below are paired with their reported IC50.
Test system: NCI-H810;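 further: IC50 reflects inhibition of cancer cell line growth, read out with a cell viability assay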
procedure_details: cells
Format: functional, cell-based
experimental_parameters: Homo sapiens
Description: SANGER: Inhibition of human NCI-H810 cell growth in a cell viability assay.
Reply numerically in µM, unit not repeated.

CCCCCCCCCCCC1=C(O)C(=O)C=C(O)C1=O; 7.73

// query IC50 value for entry CO[C@@H]1[C@H](N(C)C(=O)c2ccccc2)C[C@H]2O[C@]1(C)n1c3ccccc3c3c4c(c5c6ccccc6n2c5c31)C(=O)NC4
0.21

###

Test system: BT-474
procedure_details: cells
Format: functional, cell-based, Homo sapiens
experimental_parameters: Homo sapiens, BT-474
Description: SANGER: Inhibition of human BT-474 cell growth in a cell viability assay.
pIC50: −log10 of the molar value.
The entries below are paired with their reported pIC50.

These recorded examples may help you get a feel for the data.
CCCCCCCCCCCC1=C(O)C(=O)C=C(O)C1=O [EMBELIN]; < 4.49
NC1(c2ccc(-c3nc4ccn5c(=O)[nH]nc5c4cc3-c3ccccc3)cc2)CCC1 [MK-2206]; < 5.40
NC(=O)c1ccc(N(C(N)=O)c2c(F)cccc2F)nc1-c1ccc(F)cc1F [VX-702]; < 5.70
Cc1ccc(NC(=O)c2ccc(CN3CCN(C)CC3)cc2)cc1Nc1nccc(-c2cccnc2)n1 [IMATINIB]; < 5.70
O=S(=O)(O)c1ccc2cc(/N=N/c3cc(S(=O)(=O)O)c4cccnc4c3O)ccc2c1; < 4.80

Record NC(=O)c1cccc(-c2cc(Nc3ccc(OC(F)(F)F)cc3)ncn2)c1 : what is its pIC50 with BT-474?
< 5.89

Same read-out for CS(=O)(=O)N1CCN(Cc2cc3nc(-c4cccc5[nH]ncc45)nc(N4CCOCC4)c3s2)CC1 [PICTILISIB] ?
< 5.40

Same read-out for C[C@@H](Oc1cc(-c2cnn(C3CCNCC3)c2)cnc1N)c1c(Cl)ccc(F)c1Cl [CRIZOTINIB] ?
< 5.70

Same read-out for C=CC(=O)N1CCCC(Nc2nc(Nc3ccc(N(C)C(=O)CC)cc3)nc3[nH]cnc23)C1 (stereo not given) ?
< 4.99

Same read-out for Cc1ccc(-n2nc(C(C)(C)C)cc2NC(=O)Nc2ccc(OCCN3CCOCC3)c3ccccc23)cc1 [DORAMAPIMOD] ?
< 5.00
